- Read-out: Cytochrome P450 (CYP2B6), CYP2B6 (gene 1555)
- assay-explanation: LTEA_HepaRG_CYP2B6: Life Technologies and Expression Analysis (LTEA) Assay for Cytochrome P450 (CYP2B6) using HepaRG (AID 2283481)
- assay-setup: mRNA level, 48 h; actives raise or lower the signal
Activity calls are given as the source filed them. The calls were made as follows: active = hit-call score of the fitted dose curve at least 0.9, where 1 is the maximum; inactive = score below 0.9.
Labels: label 1 (active), label 0 (inactive)

                                   compound  label_class
0  CC(COCC(C)OC(=O)c1ccccc1)OC(=O)c1ccccc1 (configuration not stated)      label 0
1  CC(C)c1cccc(C(C)C)c1NC(=O)NS(=O)(=O)c1cc(C(C)(C)O)co1      label 1
2                   NC(=Nc1ccccc1)Nc1ccccc1      label 0
3                                      O=NO      label 0
4          N[C@@H](Cc1c[nH]c2ccccc12)C(=O)O      label 0
5              CC(C)COC(=O)CCCCC(=O)OCC(C)C      label 0
6  CSc1ccc(Oc2ccc(S(N)(=O)=O)cc2CN(C)C)cc1C      label 1

----------
- Read-out: Apoptosis regulator Bcl-2 (Homo sapiens)
- assay-explanation: LTEA_HepaRG_BCL2: Life Technologies and Expression Analysis (LTEA) Assay for Bcl-2 gene using HepaRG (AID 2283475);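 also: BCL2 transcript by TaqMan qRT-PCR normalised to ACTB GAPDH and POLR2A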
- assay-setup: mRNA level, 48 h; actives raise or lower the signal
Active and inactive are the calls of the source. Rule for the calls: active = hit-call score of the fitted dose curve at least 0.9, where 1 is the maximum; inactive = score below 0.9.
Outcome codes: active, inactive

In [3]: df
Out[3]:
                                    molecule  label_class
 0                            O=Cc1ccccc1C=O     inactive
 1            CCCCC(CC)CO (stereo not drawn)     inactive
 2                                   CC(=O)O     inactive
 3  CC(C)(O)c1ccc(CNC(=O)c2cccnc2Oc2ccc(F)cc2)cc1     inactive
 4                    Cc1ccc(C(C)(C)C)c(O)c1     inactive
 5    O=C(Oc1ccccc1)c1cccc(C(=O)Oc2ccccc2)c1     inactive
 6                Cn1cnc2c1c(=O)[nH]c(=O)n2C     inactive
 7              CC(C)COC(=O)CCCCC(=O)OCC(C)C     inactive
 8  CCCCCCC(CCCCCCCCCCC(=O)OCC(COC(C)=O)OC(C)=O)OC(C)=O (stereo not drawn)     inactive
 9  CS(=O)(=O)c1ccc([C@@H](C[C@H]2CCC(=O)C2)C(=O)Nc2cnccn2)cc1Cl       active
10  Nc1nc(Cl)nc2c1ncn2[C@H]1C[C@H](O)[C@@H](CO)O1     inactive
11  CCCCC(CC)COP(=O)(OCC(CC)CCCC)OCC(CC)CCCC (stereo not drawn)     inactive
12  CC(=O)[C@@]1(O)CC[C@H]2[C@@H]3CCC4=CC(=O)CC[C@]4(C)[C@H]3CC[C@@]21C     inactive
13                                      NC=O     inactive
14                O=C(O)CC(O)(CC(=O)O)C(=O)O     inactive
15  COC(=O)[C@H]1[C@H]2C[C@@H]3c4[nH]c5cc(OC)ccc5c4CCN3C[C@H]2C[C@@H](OC(=O)c2cc(OC)c(OC)c(OC)c2)[C@@H]1OC       active
16  CC(C)OC(=O)C(C)(C)Oc1ccc(C(=O)c2ccc(Cl)cc2)cc1     inactive
17                  CCCCOC(=O)CCCCC(=O)OCCCC     inactive
18                            O=C(O)c1cccnc1     inactive
19  CSc1ccc(Oc2ccc(S(N)(=O)=O)cc2CN(C)C)cc1C     inactive
20                  Nc1nc(=S)c2[nH]cnc2[nH]1     inactive
21                                  OCC(O)CO     inactive
22                      CN(C)CCCN(C)CCCN(C)C     inactive
23  Cc1cc(SC2=C(O)C[C@@](CCc3ccc(N)cc3)(C(C)C)OC2=O)c(C(C)(C)C)cc1CO     inactive
24                            Cc1occc(=O)c1O     inactive
25                      C=CCc1ccc(OC)c(OC)c1     inactive
26  CCC(C)N(C)C(=O)c1cc2ccccc2c(-c2ccccc2Cl)n1 (stereo not drawn)     inactive
27                          CC(C)(C)c1ccccc1     inactive
